B1: HDV Ribozyme (parent)
chain: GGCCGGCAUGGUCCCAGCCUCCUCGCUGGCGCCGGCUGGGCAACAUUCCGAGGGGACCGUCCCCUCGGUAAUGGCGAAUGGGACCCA

- Variants of: B1
- experiment_notes: self-cleavage, relative activity (ratio to wild type); higher = more cleavage; co-transcriptional
test_readout: self-cleavage
The response must contain the number and no unit.

Inquiry: # get_value(readout='self-cleavage', item= GGCCGGCAUGGUCCCAGCCUCCUCGCUGGCGCCGGCUGGGCAACAUUCCGAGGGGACCAUCCCCUCGGUAAUGGCGAAUCGGACCCA [G59A G80C] )
Reply text: 0.226

Inquiry: I have this variant here, GGCCGGCAUGGUCCCAGCCUCCUCGCUGGCGCUGGCUGGGCAACAUUCCGAGGGGACGGUCCCCUCGGUAAUGGCGAAUGGGACCCA [C33U C58G] , and I need its recorded self-cleavage.
Reply text: 0.929

Inquiry: Item GGCCGGCAUGGUCCCAGCCUCCUCGCUGGCGCCGGCUGGGCAACAUUCCGAGGGGACCGUCCCCUCGGUAAUGGCGCAUGUGACCCA [A77C G81U] has what recorded self-cleavage?
Reply text: 0.116

Inquiry: Look up self-cleavage: GGCCGGCAUGGUCCCAGCCUCCUCGCUGGCGCCGGCUGGGCAACAUUCCGAGUGGACCGUCCCCUCGCUAAUGGCGAAUGGGACCCA [G53U G68C]
Reply text: 0.277

Inquiry: Which self-cleavage is reported for this variant? GGCCGGCAUGGUCCCAGCCUCCUCGCUGGCGCCGGCUGGGCACCAUUCCGAGGGGACCGUCCCCUCGCUAAUGGCGAAUGGGACCCA [A43C G68C]
Reply text: 0.283

Inquiry: Given GGCCGGCAUGGCCGCAGCCUCCUCGCUGGCGCCGGCUGGGCAACAUUCCGAGGGGACCGUCCCCUCGGUAAUGGCGAAUGGGACCCA [U12C C14G] , state its recorded self-cleavage.
Reply text: 0.229

Inquiry: Reported self-cleavage for GGCCGGCAUGGUCCCAGCCUCCUCGCUGGCGCCGGCUGGGCAUCAUUCCGUGGGGACCGUCCCCUCGGUAAUGGCGAAUGGGACCCA [A43U A51U] : what is it?
Reply text: 0.332

Inquiry: self-cleavage lookup needed for GGCCGGCAUGGUCCCAGCCUCCUCGCUCGCGCCGGCUGGGCAACACUCCGAGGGGACCGUCCCCUCGGUAAUGGCGAAUGGGACCCA [G28C U46C] , thanks.
Reply text: 0.0723

Inquiry: State the recorded self-cleavage for this entry: GGCCGGCAUGGUCCCAGCCUCCUCGCUGGCGCCGGCUGGGCAACAGUCCGAGGGGACCGUCCCCUCGGUAAUUGCGAAUGGGACCCA [U46G G73U]
Reply text: 0.514

Inquiry: Can you share its self-cleavage? I mean this variant: GGCCGGCAUGGUCCCAGCCUCCUCGCGGGCGCCGGCUGGGCAACAUUCCGAGGGGACCGUCCCCUCGGUAAUGGCGAAUGGGACCUA [U27G C86U]
Reply text: 1.15

Inquiry: Any idea what self-cleavage was measured for GGCCGGCCUGGUCCCAGCCUCCUCGCUGGCGCCGGCUGGGCAACAUUCCGAGGGGACCGUCCCCUCGGUAAUGGGGAAUGGGACCCA [A8C C75G] ?
Reply text: 0.277

Inquiry: Recorded self-cleavage for GGGCGGCAUGGUCCCAGCCUCGUCGCUGGCGCCGGCUGGGCAACAUUCCGAGGGGACCGUCCCCUCGGUAAUGGCGAAUGGGACCCA [C3G C22G] , please?
Reply text: 0

Inquiry: # get_value(readout='self-cleavage', item= GGCCGGCAUGGUCCCAGCCUCCUCGCUGGCGCCCGCUGGGCAACAUUCCGAGGGGACCGUCCCCUCGGUAAUGGCGAAUGUGACCCA [G34C G81U] )
Reply text: 0.0639

Inquiry: For the variant GGCCGGCAUGGUCCCAGCCUCCUCGCUGCCGCCGGCUGGGCAACAUUCCGAGGGGACCGUCCCCUCGGUAAUCGCGAAUGGGACCCA [G29C G73C] , what self-cleavage is on record?
Reply text: 0.095

Inquiry: Need self-cleavage, item GGCCGGCAUGGUCCCAGCCUCCUCGCUGGCGCCGGCAGGGCAACAUUCCGAGGGGACCGUCCCCUCGGUAGUGGCGAAUGGGACCCA [U37A A71G]
Reply text: 0.128

Inquiry: I'd like to know its self-cleavage. The variant in question is GGCCGGCAUGGUCCCAGCCUCCUCGCUGGCGCCGGGUGGGCAACAUUCCGAGGGGCCCGUCCCCUCGGUAAUGGCGAAUGGGACCCA [C36G A56C]
Reply text: 0.158

Inquiry: Entry under review: GGCCGGCAUGGUCCCAGCAUCCUCGCUGGCGCCGGCUGGGCAACAUUCCGAGGGGACCGUCACCUCGGUAAUGGCGAAUGGGACCCA [C19A C62A] . Reported self-cleavage?
Reply text: 0.0536

Inquiry: Record request: self-cleavage value, item GGACGGCAUGGUCCCAGCCUCCUCGCUGGCGCCGGCUGGGGAACAUUCCGAGGGGACCGUCCCCUCGGUAAUGGCGAAUGGGACCCA [C3A C41G]
Reply text: 0.0761

Inquiry: Fill in: self-cleavage of GGCCGGCAUGGUCCCAGCCUCCUCGCUGGCGCCGGCUGGGCAACCUUCCGACGGGACCGUCCCCUCGGUAAUGGCGAAUGGGACCCA [A45C G52C] is ___
Reply text: 0.752

Inquiry: Recorded self-cleavage of GGCCGGCAUGGUCCCAGCCUCCUCGCUGGCGCCGGCUGGGCAACAUUCCGUGGGGACCGUCCCCUCGAUAAUGGCGAAUGGGACCCA [A51U G68A] , please.
Reply text: 0.787

Inquiry: Request the reported self-cleavage associated with GCCCGGCAUGGGCCCAGCCUCCUCGCUGGCGCCGGCUGGGCAACAUUCCGAGGGGACCGUCCCCUCGGUAAUGGCGAAUGGGACCCA [G2C U12G]
Reply text: 0.0426

Inquiry: Endpoint output: self-cleavage of GGUCGGCAUGGUCCCAGCCUCCUCGCUGGCGCCGGCUGGGCAACAUUCCGAGGGAACCGUCCCCUCGGUAAUGGCGAAUGGGACCCA [C3U G55A] . Value?
Reply text: 0.763

Inquiry: Param item = GUCCGGCAUGGUCCCAGCCUCCUCGCUGGCGCCGGCAGGGCAACAUUCCGAGGGGACCGUCCCCUCGGUAAUGGCGAAUGGGACCCA [G2U U37A] ; retrieve measured self-cleavage.
Reply text: 0.0378

Inquiry: Data request, read-out self-cleavage, for GGCCGGCAUGGUCCCAGCCUCCUCGCUGGAGCCGGCUGGGCAACAUUCCGAGGGGACCGUCCCCUUGGUAAUGGCGAAUGGGACCCA [C30A C66U]
Reply text: 0.421

Inquiry: Value lookup for self-cleavage; key = GGCCGGCAUGGUCCCAGCCUCCUCGCUGGCGCCGGCUGGGCAACAUUCCGAAGGGACCGUUCCCUCGGUAAUGGCGAAUGGGACCCA [G52A C61U]
Reply text: 0.879

Inquiry: Need self-cleavage of GGCCGGCAUGGUCGCAGCCUCCUCGCUGGCGCCGGCUGGGCAACAUUCCGAGGGGACCGUCCCCUCGGUAACGGCGAAUGGGACCCA [C14G U72C] , thanks.
Reply text: 0.0978

Inquiry: Fill in: self-cleavage of GGCCGGCAUGGUCCCAGCCUCCUCGCUGGCGCCGGCUGGGCAACAUUGCGAGGCGACCGUCCCCUCGGUAAUGGCGAAUGGGACCCA [C48G G54C] is ___
Reply text: 0.665

Inquiry: Requested field: self-cleavage. Item: GGCCGGCAUGGUCCCAGCCUCCUCGCUGGCGCCGGCUGGGCAACAUUCCGAGGGGACCGCCCCCUCGGUAAUGGCGAAUGGGUCCCA [U60C A83U]
Reply text: 0.653

These entries and their values trace back to the RNAGym collection of RNA variant scans (doi:10.7554/elife.80360).
